These measurements were taken from ChEMBL document CHEMBL5308541.

Assay: Hit confirmation in dose-response curve in HepG2 cytotoxicity assay, at 72h
Format: toxicity, cell-based, Homo sapiens
Design: timepoint 72 hour
Conditions: human, HepG2 cells
Entries annotated with measured IC50 at 72 h

Example results:
> print(dat)
                                querysmiles  measured
1   CCN1CCN([C@H]2CCN(c3ccnc4ccncc34)C2)CC1   > 10 µM
2  FC(F)(F)c1ccc(-c2c(-c3ccccc3)ncn2Cc2ncn[nH]2)cc1   > 10 µM
3  COC(CN(Cc1nc(N)nc(Nc2ccc(C)cc2)n1)Cc1nc(N)nc(Nc2ccc(C)cc2)n1)OC   > 10 µM
4  CN1CCN(CCOc2ccccc2CN(C)Cc2cc3cc(F)ccc3[nH]2)CC1   10.2 µM

Read the next record carefully.
Qu. Can you share its IC50 at 72 h? I mean this compound: `Cc1cc(O)c(Cl)cc1-c1cccc2c(N)ccnc12`
Ans. > 10 µM

---

Tested on: HepG2
Experiment: Hit confirmation in dose-response curve in HepG2 cytotoxicity assay, at 72h
Format: toxicity, cell-based, Homo sapiens
Parameters: timepoint 72 hour
Settings: hepg2
observable: IC50

Qu. Return IC50 measured with HepG2 given this compound: `CC(C)c1ccc(-c2nc(CN3CCCCC3)cc(CN3CCCCC3)c2O)cc1`
Ans. > 10 µM

---

Tested on: Plasmodium falciparum
Assay: Re-testing in dose-response curve in Dd2 pLDH assay, at 72h
Type: functional, organism-based, Erythrocyte
Design: timepoint 72 hour
Settings: Plasmodium falciparum, Dd2, Erythrocyte, 72 h
Listing of entries alongside the reported pIC50.
In simple prose, pIC50 is minus the logarithm base ten of a concentration in moles per litre.

Some solved entries appear below for comparison.
> print(dat)
                                   molecule                 system  measured
1  CN(C)C1(CNc2nc(C(F)(F)F)nc3cc(F)ccc23)CCCCCC1  Plasmodium falciparum      5.76
2  Cc1ccc(-c2cc(C(=O)NC3CCN(C4CCN(C)CC4)CC3)n[nH]2)cc1C  Plasmodium falciparum      5.92
3  CC1(N2CCC2)CCC(NC[C@H]2CCN(Cc3ccccc3)C2)CC1 (some centres undefined)  Plasmodium falciparum      5.80
4  COc1ccc(-c2cncc(C(=O)NCC3CCN(CCN(C)C)CC3)c2)cc1  Plasmodium falciparum      5.64
5        O=C(n1nnc2cc(Cl)c(Cl)cc21)C(F)(F)F  Plasmodium falciparum      5.98

Qu. Query (molecule): `CCOc1cc(C(=O)NC2CCN(CC3CCCC3)CC2)cc(-c2ccccc2)c1OC` ; field requested: pIC50
Ans. 4.94

Qu. Name the recorded pIC50 for `CC(C)c1ccc(-c2nc(CN3CCCCC3)cc(CN3CCCCC3)c2O)cc1` .
Ans. 6.02

Qu. Suppose we examine the molecule `C[C@@H](CNC1CCN(C2CCN(C)CC2)CC1)c1cccc(Cl)c1` ; what pIC50 value has been reported?
Ans. 5.86

Qu. For the molecule `CCCc1cccc(CNC2CCN(C3CCN(C)CC3)CC2)c1` , what pIC50 is on record?
Ans. 5.86

---

Assay: Hit confirmation in dose-response curve in HepG2 cytotoxicity assay, at 72h
Assay type: toxicity, cell-based, Homo sapiens
Parameters: timepoint 72 hour
Details: human, HepG2 cells
Parameter: IC50 at 72 h. Scope: all listed entries.

Below, 5 compounds whose answers are already recorded.
> print(dat)
                                   compound    observable  measured
1  CC(C)(C)n1ncc2c(NCc3ccc4cccnc4c3O)ncnc21  IC50 at 72 h   6.31 µM
2   COCCNc1nc(N[C@@H](C)c2ccccc2)c2ccccc2n1  IC50 at 72 h   > 10 µM
3  O=C(NC1CCN(CCOc2ccc(Cl)cc2)CC1)c1c[nH]c2ccncc2c1=O  IC50 at 72 h   > 10 µM
4  O=C(NCc1cccc(-c2cccnc2)c1)N[C@H]1CCN(C2CCCCC2)C1  IC50 at 72 h   > 10 µM
5  N#Cc1ccc(N2C[C@H](COCC3CC3)C3(CCN(Cc4cccc(O)c4)CC3)C2)cc1C(F)(F)F  IC50 at 72 h   > 10 µM

Qu. What does the record list as IC50 at 72 h for `Cc1cccc(Nc2ccnc(Nc3ccc(N4CCN(C)CC4)cc3)n2)c1` ?
Ans. > 10 µM

Qu. I have this compound here, `Cc1ccccc1-c1cccc(N2CCC(NCC3CCNCC3)CC2)c1` , and I need its recorded IC50 at 72 h.
Ans. 5.5 µM

Qu. Any idea what its IC50 at 72 h is? The compound is `Cc1c(CN2CCC(O)(Cn3ccnc3)CC2)[nH]c2c(Cl)cccc12`
Ans. > 10 µM

Qu. Name the recorded IC50 at 72 h for `Cc1cc(C)c(CN2CCN(C)CC2)cc1CNCCCn1ccnc1C` .
Ans. > 10 µM
